The values you see were collected from the RNAGym collection of RNA variant scans (doi:10.1038/ncomms11558).

B1: mRNA-splicing (parent)
chain: GAUCCAGAUCUAACUUGGGGUGGCUUUGUCUUCUUCUUUUGCCAAUUCCACUAAUUGUUUGGG

Variants of: B1
method.summary: exon inclusion enrichment score (log2 ratio to wild type); higher = more inclusion; FAS exon 6 minigene, HEK293
# cutoff -0.05 applies to exon inclusion enrichment score; >= gives met, < gives not met

Query: # bool: exon inclusion enrichment score of `G57U` >= -0.05
Reply: met

Query: Check the entry `C4A` : does exon inclusion enrichment score equal or exceed -0.05?
Reply: not met

Query: Is it the case that `A53U` has exon inclusion enrichment score reaching or exceeding -0.05?
Reply: met

Query: # check: exon inclusion enrichment score of `C36G` is greater than or equal to -0.05
Reply: not met

Query: Quick check, exon inclusion enrichment score >= -0.05? `U34C`
Reply: not met

Query: Textbook exercise: given the entry `C48G` , state whether its exon inclusion enrichment score is greater than or equal to -0.05.
Reply: not met

Query: API: above_or_equal(metric=exon inclusion enrichment score, cutoff=-0.05) for item `C43U`
Reply: not met

Query: I'd appreciate it if you could say whether `U52C` has exon inclusion enrichment score at least equal to -0.05.
Reply: met

Query: Threshold query (exon inclusion enrichment score >= -0.05) on `C49G`
Reply: met

Query: Would you say `U9G` shows exon inclusion enrichment score at minimum -0.05?
Reply: not met

Query: Does `G19U` have a reported exon inclusion enrichment score of at least -0.05?
Reply: met
